- Test system: Chordin-like protein 2 (CHRDL2)
- assay.protocol: CHRDL2 small-molecule binders, primary screen, biochemical, small-molecule microarray, 635 nm fluorescence (AID 1126);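 also: printed compound slides probed with Chrdl2 protein at 4 µg/mL for 1 h at 4 C; score merges 667 nm emission intensity with signal to noise over three replicate slides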
- experimental.setup: small-molecule microarray binding, fluorescence 635 nm; higher = more signal
assay.readout: composite z-score
Write no unit; give the number alone.

Sample records with composite z-score:
INSERT INTO measurements (compound, target_entity, experimental_value) VALUES
  ('C[C@@H](c1ccccc1)N1C(=O)[C@H]2[C@H]3[C@H](O)[C@H](O)CC(=NO[C@@H]4O[C@H](CO)[C@@H](O)[C@H](O)[C@H]4O)[C@@H]3CC[C@H]2C1=O', 'Chordin-like protein 2 (CHRDL2)', 0.25),
  ('COC(=O)[C@@H]1CC[C@H](C)[C@@H](c2ccc(C)cc2)N1C(=O)c1ccc(C=NO[C@@H]2O[C@H](COC(C)=O)[C@@H](OC(C)=O)[C@H](OC(C)=O)[C@H]2OC(C)=O)cc1', 'Chordin-like protein 2 (CHRDL2)', 0.452),
  ('C=CC[C@@H]1C=C[C@H](ON=C2[C@H]3CCn4c(=O)n(-c5ccccc5)c(=O)n4[C@H]3[C@H](O)[C@@H]3O[C@H]23)[C@@H](CO)O1', 'Chordin-like protein 2 (CHRDL2)', 0.564),
  ('O=C1[C@H]2[C@H]3[C@H](O)[C@H](O)CC(=NOC[C@@H](O)COCc4ccco4)[C@H]3CC[C@H]2C(=O)N1Cc1ccccc1', 'Chordin-like protein 2 (CHRDL2)', 0.836),
  ('COC(=O)[C@H](C)NC(=O)CCC1CC(OC(=O)NCc2ccc3c(c2)OCO3)CC2(CCCC(COC(=O)NCCc3ccccc3OC)O2)O1 (stereo partly drawn)', 'Chordin-like protein 2 (CHRDL2)', -0.0443);

Note: attention shifts to another entry.
Looking for the measured composite z-score of CO[C@H]1COC(=O)[C@@H]2CCCN2C(=O)CC=C[C@@H](C)[C@H](OC)COC(=O)[C@@H](OCc2ccccc2)C=C[C@@H]1C , can you help?
1.33

----------
z-score overview
- assay.protocol: RPMI8226 myeloma cell viability, profiling panel, resazurin fluorescence, basal, 24 h, PK04 Diversity Set (AID 1180);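 also: RPMI8826 multiple myeloma cell line at 5000 cells per well; test concentration not given here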
- experimental.setup: higher = more signal
Write no unit; give the number alone.

INSERT INTO assay_data (compound, assay_readout, experimental_value) VALUES
  ('CCOC(=O)[C@H](CC(C)C)NC(=O)CCC1CC(OC(=O)NCc2cccc3ccccc23)CC2(CCCC(COC(=O)NCCOc3ccccc3)O2)O1 (stereo partly drawn)', 'z-score', 1.57),
  ('O=C1CCCC=C1C(CCc1ccccc1)OC(=O)c1ccc(Br)cc1 (stereo not drawn)', 'z-score', 0.504),
  ('CON=C[C@@H](NS(=O)(=O)c1ccc(C)cc1)[C@H](C)C=CCC(=O)OC', 'z-score', -0.484);

Looking for the measured z-score of C[C@@H]1C=CCC(=O)OC[C@H]2O[C@@H](C=C[C@@H]2O)[C@H](C)C=CCC(=O)OC1 , can you help?
-0.667

Looking for the measured z-score of COc1cccc([C@H]2Oc3ccc(OC)cc3C(=NOC(C)CN3CCCCc4nc(C)c(C)cc43)[C@@H]2O)c1 (stereo partly drawn) , can you help?
-1.16

Looking for the measured z-score of O=C1C[C@@H](O)[C@@H](O)[C@@H]2[C@@H]3C(=O)N(C[C@@H]4CCCO4)C(=O)[C@@H]3CC[C@H]12 , can you help?
-0.449

Looking for the measured z-score of CCOC(=O)NN=C1C[C@@H](O)[C@@H](O)[C@@H]2[C@@H]3C(=O)N(C(C)(C)C)C(=O)[C@@H]3CC[C@H]12 , can you help?
-0.226

Looking for the measured z-score of CC(C)=CCCC(C)=CCON=C1C[C@@H](O)[C@@H](O)[C@@H]2[C@@H]3C(=O)N(C(C)(C)C)C(=O)[C@@H]3CC[C@H]12 , can you help?
-0.245

----------
- assay.protocol: small-molecule microarray binders of probe aLefty2, primary screen, biochemical, biotinylated probe, 635/667 nm fluorescence (AID 1094);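 also: score merges spot fluorescence near 667 nm with spot signal-to-noise ratio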
- experimental.setup: higher = more signal
The recorded composite z-score of each item maps onto one of these classes: bucket 1: < -0.2; bucket 2: ≥ -0.2 and < -0.01; bucket 3: ≥ -0.01

Hello team, could you let me know which band the following molecule falls into: C[C@H]1Cc2c(COc3ccccc3)nc3c(c2CO1)CN(CCOc1ccccc1)CC3
bucket 2

Hello team, could you let me know which band the following molecule falls into: CCOC(=O)CCN1C(=O)[C@H]2[C@H]3[C@H](O)[C@H](O)CC(=NOCC(C)C)[C@H]3CC[C@H]2C1=O
bucket 3

Hello team, could you let me know which band the following molecule falls into: CC(C)CON=C1C[C@@H](O)[C@@H](O)[C@@H]2[C@@H]3C(=O)N(C4CCCCC4)C(=O)[C@@H]3CC[C@@H]12
bucket 1

Hello team, could you let me know which band the following molecule falls into: CCOC(=O)[C@H](Cc1ccccc1)NC(=O)CCC1CC(OC(=O)NCc2cccc3ccccc23)CC2(CCCC(COC(=O)NCCC(C)C)O2)O1 (stereo not given in full)
bucket 3

Hello team, could you let me know which band the following molecule falls into: COc1ccc(O[C@H]2C=C[C@@H](c3ccccc3)O[C@@H]2COC(=O)CCC(C)=NO[C@@H]2O[C@H](COC(C)=O)[C@@H](OC(C)=O)[C@H](OC(C)=O)[C@H]2OC(C)=O)cc1
bucket 1

Hello team, could you let me know which band the following molecule falls into: C=CC[C@@H]1C=C[C@H](ON=C[C@@H](C)[C@H](OCc2ccccc2)C(C)C)[C@@H](CO)O1
bucket 1

Hello team, could you let me know which band the following molecule falls into: CCOC(=O)[C@H](Cc1ccccc1)NC(=O)CCC1CC(OC(=O)NCc2ccc3c(c2)OCO3)CC2(CCCC(COC(=O)NCCC(C)C)O2)O1 (stereo not given in full)
bucket 3

Hello team, could you let me know which band the following molecule falls into: CO[C@@H]1C=CCC(=O)N[C@@H](C)C(=O)OC[C@@H](OC)[C@H](C)CCCC(=O)OC[C@H]1C
bucket 2

Hello team, could you let me know which band the following molecule falls into: C[C@@H](c1ccccc1)N1C(=O)[C@H]2[C@H]3[C@H](O)[C@H](O)CC(=O)[C@H]3CC[C@H]2C1=O
bucket 2

Hello team, could you let me know which band the following molecule falls into: COc1cc(O)c(C(=O)C=Cc2ccc3c(c2)OCO3)c(OC)c1
bucket 2

Hello team, could you let me know which band the following molecule falls into: COC(=O)[C@H]1O[C@@H](c2c(OC)c(OC)c(C)c(OC)c2OC)[C@H](C)[C@@H](O)[C@H]1C
bucket 2

Hello team, could you let me know which band the following molecule falls into: O=C(NN=C1C[C@@H](O)[C@@H](O)[C@@H]2[C@@H]3C(=O)N(C[C@@H]4CCCO4)C(=O)[C@@H]3CC[C@H]12)OCc1ccccc1
bucket 3

Hello team, could you let me know which band the following molecule falls into: C#CCCCON=C1C[C@@H](O)[C@@H](O)[C@@H]2[C@@H]3C(=O)N(CCC(=O)OCC)C(=O)[C@@H]3CC[C@H]12
bucket 2

Hello team, could you let me know which band the following molecule falls into: CCOC(=O)[C@H](CC(C)C)NC(=O)CCC1CC(OC(=O)NCc2ccc3c(c2)OCO3)CC2(CCCC(COC(=O)NCC3CCCCC3)O2)O1 (stereo not given in full)
bucket 1

Hello team, could you let me know which band the following molecule falls into: O=C1[C@H]2[C@H]3[C@H](O)[C@H](O)CC(=NOC[C@@H](O)COCc4ccco4)[C@H]3CC[C@H]2C(=O)N1c1ccc(F)cc1F
bucket 1

----------
- Tested on: Lefty1
- assay.protocol: Lefty1 binders on small-molecule microarrays, primary screen, biochemical, small-molecule microarray, 635/667 nm fluorescence (AID 1139)
- experimental.setup: small-molecule microarray binding, fluorescence 635/667; higher = more signal
assay.readout: composite z-score

Notebook: pull reported composite z-score for Lefty1, entry CC(CCN1CCCc2nc(C)c(C)cc21)=NOC(C)CN1CCCCc2nc(C)c(C)cc21 (stereo not given)
0.91

----------
composite z-score overview
- assay.protocol: binders of probe aFGF10 on microarray, primary screen, stem cell growth factor project, biochemical, small-molecule microarray, fluorescence 635/667 (AID 1071);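 also: score merges 667 nm spot intensity and signal to noise from triplicate slides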
- experimental.setup: higher = more signal
Write no unit; give the number alone.

Looking for the measured composite z-score of CO[C@H]1COC(=O)CC=C[C@@H](C)[C@H](OC)COC(=O)CCC[C@@H]1C , can you help?
0.238

----------
- assay.protocol: binders of probe aFSTL3 on microarray, primary screen, stem cell growth factor project, biochemical, small-molecule microarray, fluorescence 635/667 (AID 1064);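 also: measures binding of the biotinylated anti-FSTL3 antibody to printed compounds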
- experimental.setup: higher = more signal
assay.readout: composite z-score

Sample records with composite z-score:
INSERT INTO measurements (molecular_string, assay_readout, experimental_value) VALUES
  ('O=c1n(-c2ccccc2)c(=O)n2n1CC[C@@H]1C(=NOCc3ccccc3)[C@H]3O[C@H]3[C@@H](O)[C@@H]12', 'composite z-score', -0.489),
  ('CCOC(=O)NN=C1C[C@@H](O)[C@@H](O)[C@@H]2[C@@H]3C(=O)N(Cc4ccccc4)C(=O)[C@@H]3CC[C@H]12', 'composite z-score', -0.276),
  ('C=CC[C@@H]1C=C[C@H](ON=C[C@@H](C)[C@H](OCc2ccccc2)C(C)C)[C@@H](CO)O1', 'composite z-score', -0.227),
  ('CC(C)CON=C1C[C@@H](O)[C@@H](O)[C@@H]2[C@@H]3C(=O)N(C[C@@H]4CCCO4)C(=O)[C@@H]3CC[C@@H]12', 'composite z-score', -0.308),
  ('CC(C)=CCCC(C)=CCON=C1C[C@@H](O)[C@@H](O)[C@@H]2[C@@H]3C(=O)N(Cc4ccccc4)C(=O)[C@@H]3CC[C@@H]12', 'composite z-score', -0.249);

Looking for the measured composite z-score of COC(=O)CC=C[C@@H](C)[C@@H](C=NOC[C@H]1O[C@H](c2ccccc2)C=C[C@@H]1Oc1ccc(OC)cc1)OC , can you help?
-0.309

Looking for the measured composite z-score of CC(=O)OC[C@H]1O[C@@H](ON=C(C)CCN2CCCc3nc(C)c(C)cc32)[C@H](OC(C)=O)[C@@H](OC(C)=O)[C@@H]1OC(C)=O , can you help?
-0.63
